System: 596521-263-R-J1-PDC complex spheroid growth
method-notes: Anticancer human tumor 596521-263-R-J1-PDC patient-derived soft tissue sarcoma cell line growth inhibition [Asc]
measurement-setup: second compound 1 µM; first compound 0.1 µM; active compounds read low
attribute-measured: viability, T/C (%)
Number in %, nothing else.

Some solved cases for reference:
compound="C#Cc1c(F)ccc2cc(O)cc(-c3ncc4c(N5CC6CCC(C5)N6)nc(OCC56CCCN5CC(F)C6)nc4c3F)c12 (stereo not drawn) + Cc1c(S(C)(=O)=O)c(-c2cc(F)cc(N3CCN(c4ccc(NS(=O)(=O)c5ccc(NC(CCN6CCC(C(=O)OCCCP(=O)(O)O)CC6)CSc6ccccc6)c(S(=O)(=O)C(F)(F)F)c5)cc4)CC3)c2)c(-c2ccc(Cl)cc2)n1C(C)C" observed_result=84.2
compound="O=C(c1ccc(F)c(F)c1Nc1ccc(I)cc1F)N1CC(O)([C@@H]2CCCCN2)C1 + CNC(C)C(=O)NC1CN(S(=O)(=O)c2cccc(S(=O)(=O)N3CCC4CCC(C(=O)NC(c5ccccc5)c5ccccc5)N4C(=O)C(NC(=O)C(C)NC)C3)c2)CCC2CCC(C(=O)NC(c3ccccc3)c3ccccc3)N2C1=O" observed_result=53.2

Which value of viability, T/C has been reported for C=C(F)C(=O)N1CCN(c2nc(OCC3CCCN3C)nc3c2CCN(c2cccc4cccc(Cl)c24)C3)CC1CC#N (stereo not drawn) + Cc1c(S(C)(=O)=O)c(-c2cc(F)cc(N3CCN(c4ccc(NS(=O)(=O)c5ccc(NC(CCN6CCC(C(=O)OCCCP(=O)(O)O)CC6)CSc6ccccc6)c(S(=O)(=O)C(F)(F)F)c5)cc4)CC3)c2)c(-c2ccc(Cl)cc2)n1C(C)C in the records?
87

====

Listed here are compounds together with their documented viability, T/C.
Test system: 596521-263-R-J1-PDC complex spheroid growth
method-notes: Anticancer human tumor 596521-263-R-J1-PDC cell line growth inhibition [Asc];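 further: spheroids exposed to compounds for 7 days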
measurement-setup: second compound 0.0316 µM; first compound 0.00316 µM; active compounds read low
Number in %, nothing else.

Some solved cases for reference:
compound="O=C(c1ccc(F)c(F)c1Nc1ccc(I)cc1F)N1CC(O)([C@@H]2CCCCN2)C1 + Cc1c(S(C)(=O)=O)c(-c2cc(F)cc(N3CCN(c4ccc(NS(=O)(=O)c5ccc(NC(CCN6CCC(C(=O)OCCCP(=O)(O)O)CC6)CSc6ccccc6)c(S(=O)(=O)C(F)(F)F)c5)cc4)CC3)c2)c(-c2ccc(Cl)cc2)n1C(C)C" attribute_measured="viability, T/C" observed_result=96
compound="Cn1ncnc1[C@H]1c2n[nH]c(=O)c3cc(F)cc(c23)N[C@@H]1c1ccc(F)cc1 + CNC(C)C(=O)NC1CN(S(=O)(=O)c2cccc(S(=O)(=O)N3CCC4CCC(C(=O)NC(c5ccccc5)c5ccccc5)N4C(=O)C(NC(=O)C(C)NC)C3)c2)CCC2CCC(C(=O)NC(c3ccccc3)c3ccccc3)N2C1=O" attribute_measured="viability, T/C" observed_result=73

Which value of viability, T/C has been reported for COc1c(OCCCN2CCOCC2)ccc2c3n(c(=NC(=O)c4cnc(N)nc4)nc12)CCN3 + Cc1c(S(C)(=O)=O)c(-c2cc(F)cc(N3CCN(c4ccc(NS(=O)(=O)c5ccc(NC(CCN6CCC(C(=O)OCCCP(=O)(O)O)CC6)CSc6ccccc6)c(S(=O)(=O)C(F)(F)F)c5)cc4)CC3)c2)c(-c2ccc(Cl)cc2)n1C(C)C in the records?
95.5

Similarly, NC1CCC(NC2CC2c2ccccc2)CC1 (centres undefined) + Cc1c(S(C)(=O)=O)c(-c2cc(F)cc(N3CCN(c4ccc(NS(=O)(=O)c5ccc(NC(CCN6CCC(C(=O)OCCCP(=O)(O)O)CC6)CSc6ccccc6)c(S(=O)(=O)C(F)(F)F)c5)cc4)CC3)c2)c(-c2ccc(Cl)cc2)n1C(C)C ?
80.2

Similarly, CNC(C)C(=O)NC1CN(S(=O)(=O)c2cccc(S(=O)(=O)N3CCC4CCC(C(=O)NC(c5ccccc5)c5ccccc5)N4C(=O)C(NC(=O)C(C)NC)C3)c2)CCC2CCC(C(=O)NC(c3ccccc3)c3ccccc3)N2C1=O (centres undefined) + Cc1c(S(C)(=O)=O)c(-c2cc(F)cc(N3CCN(c4ccc(NS(=O)(=O)c5ccc(NC(CCN6CCC(C(=O)OCCCP(=O)(O)O)CC6)CSc6ccccc6)c(S(=O)(=O)C(F)(F)F)c5)cc4)CC3)c2)c(-c2ccc(Cl)cc2)n1C(C)C ?
84.3

Similarly, Cn1ncnc1[C@H]1c2n[nH]c(=O)c3cc(F)cc(c23)N[C@@H]1c1ccc(F)cc1 + Cc1c(S(C)(=O)=O)c(-c2cc(F)cc(N3CCN(c4ccc(NS(=O)(=O)c5ccc(NC(CCN6CCC(C(=O)OCCCP(=O)(O)O)CC6)CSc6ccccc6)c(S(=O)(=O)C(F)(F)F)c5)cc4)CC3)c2)c(-c2ccc(Cl)cc2)n1C(C)C ?
81.9

Similarly, CCN1CCN(Cc2ccc(Nc3ncc(F)c(-c4cc(F)c5nc(C)n(C(C)C)c5c4)n3)nc2)CC1 + CNC(C)C(=O)NC1CN(S(=O)(=O)c2cccc(S(=O)(=O)N3CCC4CCC(C(=O)NC(c5ccccc5)c5ccccc5)N4C(=O)C(NC(=O)C(C)NC)C3)c2)CCC2CCC(C(=O)NC(c3ccccc3)c3ccccc3)N2C1=O ?
79.9

Similarly, CCN1CCN(Cc2ccc(Nc3ncc(F)c(-c4cc(F)c5nc(C)n(C(C)C)c5c4)n3)nc2)CC1 + Cc1c(S(C)(=O)=O)c(-c2cc(F)cc(N3CCN(c4ccc(NS(=O)(=O)c5ccc(NC(CCN6CCC(C(=O)OCCCP(=O)(O)O)CC6)CSc6ccccc6)c(S(=O)(=O)C(F)(F)F)c5)cc4)CC3)c2)c(-c2ccc(Cl)cc2)n1C(C)C ?
94.2

Similarly, O=C(c1ccc(F)c(F)c1Nc1ccc(I)cc1F)N1CC(O)([C@@H]2CCCCN2)C1 + CNC(C)C(=O)NC1CN(S(=O)(=O)c2cccc(S(=O)(=O)N3CCC4CCC(C(=O)NC(c5ccccc5)c5ccccc5)N4C(=O)C(NC(=O)C(C)NC)C3)c2)CCC2CCC(C(=O)NC(c3ccccc3)c3ccccc3)N2C1=O ?
96.6

Hey, just so you know, these numbers are from PubChem BioAssay AID1963449.
